The values you see were collected from paper PMC7144234.

Tested on: HCT-116
protocol text: MTT antiproliferative assay, HCT-116
Format: cell-based, human
test conditions: Homo sapiens, 72 h, colorectal carcinoma HCT-116
The reader will find reported IC50 values listed item by item below.
Your answer is read as µM, so omit the unit and give the number.

Below are worked cases with known answers.
> print(dat)
                                   molecule  readout.units  test.result
1  Cc1ccc2occ(C(=O)N3CCN(CCOc4no[n+]([O-])c4S(=O)(=O)c4ccccc4)CC3)c(=O)c2c1 [14c]             µM         7.93
2  COc1ccc2oc(N3CCN(CCOc4no[n+]([O-])c4S(=O)(=O)c4ccccc4)CC3)c(C(=O)O)c(=O)c2c1 [15d]             µM         12.9
3    NCCCOc1no[n+]([O-])c1S(=O)(=O)c1ccccc1             µM         18.9

Exam item: Please report the measured IC50 for COc1ccc2occ(C(=O)N3CCN(CCOc4no[n+]([O-])c4S(=O)(=O)c4ccccc4)CC3)c(=O)c2c1 [15c]
Marked response: 22.4
